B1: Pistol ribozyme (parent)
chain: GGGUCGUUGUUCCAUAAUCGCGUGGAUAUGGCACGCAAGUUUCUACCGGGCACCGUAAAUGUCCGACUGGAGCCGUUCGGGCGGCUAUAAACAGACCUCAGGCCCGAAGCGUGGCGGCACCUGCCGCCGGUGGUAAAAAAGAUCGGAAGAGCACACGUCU

variants of: B1; assay: aptazyme ON/OFF ratio, guanine; higher = stronger switching; co-transcriptional cleavage with and without guanine

{"variant key": "U7C U8A U10A C12U C13G", "aptazyme ON/OFF ratio": 1.18}
{"variant key": "U7C U8C G9C U10C U11C C12G", "aptazyme ON/OFF ratio": 1.13}
{"variant key": "U7C U8G G9U U10A U11C C12A", "aptazyme ON/OFF ratio": 1.14}
{"variant key": "U7G U8G G9U U10C U11A C12A C13A", "aptazyme ON/OFF ratio": 1.3}
{"variant key": "U7G U8A G9A C12A C13U", "aptazyme ON/OFF ratio": 1.1}
{"variant key": "U8A G9A U10A U11A", "aptazyme ON/OFF ratio": 1.35}
{"variant key": "U7A U8A G9U U10C U11A C13U", "aptazyme ON/OFF ratio": 1.08}
{"variant key": "U7G U10G U11G C12A C13U", "aptazyme ON/OFF ratio": 1.13}
{"variant key": "U8C U10A C12U C13A", "aptazyme ON/OFF ratio": 1.14}
{"variant key": "U7A U8A G9U U10A U11A C12U C13G", "aptazyme ON/OFF ratio": 1.22}
{"variant key": "U7C U8A G9A C12A C13A", "aptazyme ON/OFF ratio": 1.21}
